Cited source for all entries: patent US20050203007A1

Biological target: T1, human PC7 (human, UniProt Q16549 142-667, limits assumed)
T1 sequence (looked up): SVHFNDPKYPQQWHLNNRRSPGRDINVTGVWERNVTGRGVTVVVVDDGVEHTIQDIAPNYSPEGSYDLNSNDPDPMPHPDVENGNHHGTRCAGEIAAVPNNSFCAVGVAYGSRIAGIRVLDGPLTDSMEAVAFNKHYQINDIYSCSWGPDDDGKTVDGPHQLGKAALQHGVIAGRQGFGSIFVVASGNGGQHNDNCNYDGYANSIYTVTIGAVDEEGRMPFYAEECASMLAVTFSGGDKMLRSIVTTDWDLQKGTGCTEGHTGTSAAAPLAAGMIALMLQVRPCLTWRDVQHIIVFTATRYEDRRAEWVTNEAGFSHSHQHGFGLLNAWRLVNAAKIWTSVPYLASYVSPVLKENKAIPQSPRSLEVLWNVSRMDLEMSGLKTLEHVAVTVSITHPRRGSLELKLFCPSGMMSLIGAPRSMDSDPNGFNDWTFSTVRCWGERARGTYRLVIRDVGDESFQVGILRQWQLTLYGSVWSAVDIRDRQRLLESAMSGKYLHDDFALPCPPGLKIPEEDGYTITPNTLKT
Experiment: enzyme inhibition, purified variant
endpoint: Ki (nM)

binder	reported
Tyr49Ala-R4R1-eglin (designed binder, R4R1 template; N-terminal Met removed; also called Ala49-R4R1-) SMGSELKSFPEVVGKTVDQAREYFTLHYPQYDVYFLPEGSRVTRDLRANRVRVFYNPGTNVVNHVPHVG	2.9
Trp49-R4R1-eglin (designed binder, R4R1 template; N-terminal Met removed) SMGSELKSFPEVVGKTVDQAREYFTLHYPQYDVYFLPEGSRVTRDLRWNRVRVFYNPGTNVVNHVPHVG	0.47
Glu49-R4R1-eglin (designed binder, R4R1 template; N-terminal Met removed) SMGSELKSFPEVVGKTVDQAREYFTLHYPQYDVYFLPEGSRVTRDLRENRVRVFYNPGTNVVNHVPHVG	2.9
Ser49-R4R1-eglin (designed binder, R4R1 template; N-terminal Met removed) SMGSELKSFPEVVGKTVDQAREYFTLHYPQYDVYFLPEGSRVTRDLRSNRVRVFYNPGTNVVNHVPHVG	2.5
Tyr49Asp-R4R1-eglin (designed binder, R4R1 template; N-terminal Met removed; also called Asp49-R4R1-eglin; Asp49-R4R1-) SMGSELKSFPEVVGKTVDQAREYFTLHYPQYDVYFLPEGSRVTRDLRDNRVRVFYNPGTNVVNHVPHVG	1.8
Met49-R4R1-eglin (designed binder, R4R1 template; N-terminal Met removed) SMGSELKSFPEVVGKTVDQAREYFTLHYPQYDVYFLPEGSRVTRDLRMNRVRVFYNPGTNVVNHVPHVG	1.4
R4R1-eglin (designed binder, N-terminal Met removed; also called Tyr49-R4R1-; D33Y49) SMGSELKSFPEVVGKTVDQAREYFTLHYPQYDVYFLPEGSRVTRDLRYNRVRVFYNPGTNVVNHVPHVG	1.3
